target: human DGKζ (Homo sapiens (Human)); experiment: Human DGKζ kinase activity inhibition assay (ADP-Glo); format: biochemical; conditions: in vitro human DGKζ kinase activity inhibition assay; read-out: IC50
measurement-kind: pIC50
When answering, recall that pIC50 equals minus log10 of the concentration in mol/L, and write that number alone.

>  <compound>
CC(C(N)=O)N(c1ccc(Cl)cc1)c1nc(N)c(C(=O)c2ccc(F)cc2)s1 (single isomer, unassigned) [Example 37.1]

>  <tested-target>
human DGKζ (Homo sapiens (Human))

>  <pIC50>
5.70

$$$$
>  <compound>
CC(C(N)=O)N(c1ccc(F)cc1)c1nc(N)c(C(=O)c2ccc(N3CCOCC3)cc2)s1 (racemic)

>  <tested-target>
human DGKζ (Homo sapiens (Human))

>  <pIC50>
7.32

$$$$
>  <compound>
CC(C(N)=O)N(c1ccc(Cl)c(F)c1)c1nc(N)c(C(=O)c2ccc(OC(F)F)cc2)s1 (racemic) [Example 48]

>  <tested-target>
human DGKζ (Homo sapiens (Human))

>  <pIC50>
8.43

$$$$
>  <compound>
CC(Oc1ccc(C(=O)c2sc(N(c3ccccc3)C(C)C(N)=O)nc2N)cc1)C(N)=O (single isomer, unassigned) [Example 45.1]

>  <tested-target>
human DGKζ (Homo sapiens (Human))

>  <pIC50>
6.70

$$$$

# pIC50 (compound: CC(C(N)=O)N(c1ccc(F)nc1)c1nc(N)c(C(=O)c2ccccc2)s1 (racemic) ) is 6.57

The reported value for Cc1nc(N(c2ccc(F)c(F)c2)C(C)C(N)=O)sc1C(=O)c1ccc(OC(F)F)cc1 (single isomer, unassigned) [Example 55.1] in terms of pIC50 is 8.22

Data point: CC(C(N)=O)N(c1ccc(F)cc1)c1nc(N)c(C(=O)c2ccc(OCC(=O)Nc3cccc(C(N)=O)c3)cc2)s1 (racemic) ; pIC50 = 7.11

response.value for CC(C(N)=O)N(c1ccc(C(F)(F)F)cc1)c1nc(N)c(C(=O)c2ccc(OC(F)F)cc2)s1 (single isomer, unassigned) [Example 43.1] (field: pIC50) = 5.56

// sample CC(C(N)=O)N(c1ccc(F)cc1)c1nc(N)c(C(=O)c2ccc(C#N)c(F)c2)s1 (single isomer, unassigned) [Example 21.1] , its pIC50 was 5.26

* * *

target: UniProt Q13574; assay: Human DGKζ kinase activity inhibition assay (ADP-Glo); format: biochemical; settings: in vitro human DGKζ kinase activity inhibition assay; read-out: IC50
pIC50: −log10 of the molar value.
Kind request: treat 7 as inclusive, so pIC50 at 7 or higher is t, anything lower is f.

>  <molecule>
CC(C(N)=O)N(c1nc(N)c(C(=O)c2ccccc2)s1)c1ccccc1F (single isomer, unassigned) [Example 75.1]

>  <assigned-class>
f

$$$$
>  <molecule>
CC(C(N)=O)N(c1ccc(F)c(OC(F)(F)F)c1)c1nc(N)c(C(=O)c2ccccc2)s1 (racemic)

>  <assigned-class>
f

$$$$

Proceed to the following item.
Test whether the molecule COc1ccc(NC(=O)COc2ccc(C(=O)c3sc(N(c4ccc(F)cc4)C(C)C(N)=O)nc3N)cc2)cc1 (racemic) records pIC50 of 7 or higher.
t

* * *

Quick reference: IC50 of the listed items.
biological target: human DGKζ (Homo sapiens (Human), UniProt Q13574); experiment: Human DGKζ kinase activity inhibition assay (ADP-Glo); assay type: biochemical; settings: in vitro human DGKζ kinase activity inhibition assay; read-out: IC50
Sequence (Q13574 other isoform, or with tags, fused parts or gaps): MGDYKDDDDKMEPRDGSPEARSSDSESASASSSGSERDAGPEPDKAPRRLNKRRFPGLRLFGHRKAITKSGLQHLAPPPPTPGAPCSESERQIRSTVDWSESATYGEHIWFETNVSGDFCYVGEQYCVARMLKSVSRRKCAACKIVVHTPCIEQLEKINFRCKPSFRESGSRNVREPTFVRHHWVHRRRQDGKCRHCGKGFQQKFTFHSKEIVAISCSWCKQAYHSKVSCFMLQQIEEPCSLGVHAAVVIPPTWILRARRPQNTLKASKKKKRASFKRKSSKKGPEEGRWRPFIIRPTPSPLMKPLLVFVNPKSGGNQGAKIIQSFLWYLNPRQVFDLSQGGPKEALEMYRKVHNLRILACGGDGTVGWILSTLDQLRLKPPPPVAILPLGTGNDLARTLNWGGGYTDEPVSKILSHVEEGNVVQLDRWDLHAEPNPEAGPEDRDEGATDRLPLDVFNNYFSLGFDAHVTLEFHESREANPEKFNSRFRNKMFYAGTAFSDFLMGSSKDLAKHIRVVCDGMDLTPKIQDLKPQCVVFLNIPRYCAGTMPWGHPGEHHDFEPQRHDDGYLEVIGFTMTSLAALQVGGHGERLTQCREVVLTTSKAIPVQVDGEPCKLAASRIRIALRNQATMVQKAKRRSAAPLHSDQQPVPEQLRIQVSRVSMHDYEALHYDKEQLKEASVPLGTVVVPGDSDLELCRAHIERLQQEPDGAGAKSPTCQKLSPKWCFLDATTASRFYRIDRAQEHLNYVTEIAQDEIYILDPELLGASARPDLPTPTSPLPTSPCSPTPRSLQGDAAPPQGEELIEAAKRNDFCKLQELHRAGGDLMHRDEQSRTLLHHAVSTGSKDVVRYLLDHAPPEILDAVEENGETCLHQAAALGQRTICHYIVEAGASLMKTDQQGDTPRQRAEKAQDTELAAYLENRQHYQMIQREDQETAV
Please respond with the number in nM and leave the unit unwritten.

>  <compound>
CC(C(N)=O)N(c1ccc(F)cc1)c1nc(N)c(C(=O)c2ccnc(C(F)F)c2)s1 (racemic) [Example 188]

>  <IC50, nM>
1240

$$$$
>  <compound>
CC(C(N)=O)N(c1ccc(Cl)cc1)c1nc(N)c(C(=O)c2ccccc2)s1 (racemic) [Example 34]

>  <IC50, nM>
34.4

$$$$

// CC(C(N)=O)N(c1ccc(F)cc1)c1nc(N)c(C(=O)c2ccc(Cl)cc2)s1 (racemic) [Example 38] : IC50 value = 19.3

The measured IC50 associated with CC(C(N)=O)N(c1ccc(F)cc1)c1nc(N)c(C(=O)c2ccc(OC(F)F)nc2)s1 (racemic) [Example 162] reads 22

// IC50 lookup, compound = COc1ccc(N(c2nc(N)c(C(=O)c3ccccc3)s2)C(C)C(N)=O)cn1 (racemic) [Example 227] , result: 393

* * *

target: human DGKζ (Homo sapiens (Human), UniProt Q13574); assay: Human DGKζ kinase activity inhibition assay (ADP-Glo); type: biochemical; conditions: in vitro human DGKζ kinase activity inhibition assay; read-out: IC50
IC50 overview
Dear colleague, please return just the value in µM, with no unit written.

Example entries and their recorded answers appear below.
>  <compound>
CC(C(N)=O)N(c1ccc(Cl)nc1)c1nc(N)c(C(=O)c2ccccc2)s1 (racemic)

>  <scale-unit>
µM

>  <IC50>
0.112

$$$$
>  <compound>
CC(C(N)=O)N(c1ccc(F)cc1)c1nc(N)c(C(=O)c2ccccc2)s1 (racemic) [Example 61]

>  <scale-unit>
µM

>  <IC50>
0.0932

$$$$
>  <compound>
CC(C(N)=O)N(c1ccc(F)cc1)c1nc(N)c(C(=O)c2ccc(C#N)cc2F)s1 (racemic)

>  <scale-unit>
µM

>  <IC50>
0.13

$$$$
>  <compound>
COc1ccc(C(=O)c2sc(N(c3ccc(Cl)c(F)c3)C(C)C(N)=O)nc2N)cc1 (racemic) [Example 59]

>  <scale-unit>
µM

>  <IC50>
0.0103

$$$$
>  <compound>
Cc1ccc(N(C)C(=O)COc2ccc(C(=O)c3sc(N(c4ccc(F)cc4)C(C)C(N)=O)nc3N)cc2)cc1 (racemic)

>  <scale-unit>
µM

>  <IC50>
0.0569

$$$$

Turning now to a further record.
Recorded result, COc1ccc(C(=O)c2sc(N(c3ccc(OC(F)F)nc3)C(C)C(N)=O)nc2N)cc1 (racemic) , IC50: 0.106

* * *

target: human DGKζ (Homo sapiens (Human), UniProt Q13574); assay: Human DGKζ kinase activity inhibition assay (ADP-Glo); assay type: biochemical; details: in vitro human DGKζ kinase activity inhibition assay; read-out: IC50
measurement-kind: pIC50
# pIC50 = -log10(concentration in molar units)

Answered cases to consult:
>  <compound>
CCOC(=O)c1ccc(C(=O)c2sc(N(c3ccc(Cl)c(F)c3)C(C)C(N)=O)nc2N)cc1 (racemic) [Example 258]

>  <pIC50>
7.72

$$$$
>  <compound>
CC(C(N)=O)N(c1ccc(C(F)(F)F)cc1)c1nc(N)c(C(=O)c2ccccc2)s1 (racemic) [Example 28]

>  <pIC50>
7.21

$$$$
>  <compound>
COc1ccc(C(=O)c2sc(N(c3ccc(Cl)c(F)c3)C(C)C(N)=O)nc2N)cn1 (racemic) [Example 172]

>  <pIC50>
7.34

$$$$
>  <compound>
CC(C(N)=O)N(c1ccc(F)cc1)c1nc(N)c(C(=O)c2ccc(C#N)cc2)s1 (racemic) [Example 33]

>  <pIC50>
7.37

$$$$

Entry CC(C(N)=O)N(c1ccc(F)cc1)c1nc(N)c(C(=O)c2ccc(F)c(F)c2)s1 (racemic) [Example 25] , pIC50 reported as 7.00

The recorded pIC50 for CC(C(N)=O)N(c1ccc(OC(F)(F)F)c(F)c1)c1nc(N)c(C(=O)c2ccc(OC(F)F)cc2)s1 (racemic) [Example 219] is 7.89

pIC50 in this record for COc1ccc(C(=O)c2sc(N(c3ccc(F)c(Cl)c3)C(C)C(N)=O)nc2N)cc1 (racemic) [Example 161] : 7.82

Measured pIC50, Cc1cccc(CNC(=O)COc2ccc(C(=O)c3sc(N(c4ccc(F)cc4)C(C)C(N)=O)nc3N)cc2)c1 (racemic) [Example 83] : 7.61

Notebook: CC(C(N)=O)N(c1ccc(F)cc1)c1nc(N)c(C(=O)c2ccc(F)cc2)s1 (racemic) [Example 64] , pIC50 read as 7.25

Reported pIC50 of CC(C(N)=O)N(c1ccc(Cl)c(F)c1)c1nc(N)c(C(=O)c2ccc(OC(F)F)nc2)s1 (single isomer, unassigned) [Example 164.1] : 8.30

* * *

molecular target: human DGKζ (Homo sapiens (Human)); assay: Human DGKζ kinase activity inhibition assay (ADP-Glo); type: biochemical; details: in vitro human DGKζ kinase activity inhibition assay; read-out: IC50
Listed below: IC50 values for each entry.

Looking up CC(C(N)=O)N(c1ccc(F)cc1)c1nc(N)c(C(=O)c2ccc(OCC(=O)Nc3ccc(C#N)cc3)cc2)s1 (racemic) , I found its IC50 recorded as 16.7 nM

Value of IC50 reported for the compound CC(Oc1ccc(C(=O)c2sc(N(c3ccccc3)C(C)C(N)=O)nc2N)cc1)C(N)=O (single isomer, unassigned) [Example 45.4] is > 20000 nM

Data point: CC(C(N)=O)N(c1ccc(F)cc1)c1nc(N)c(C(=O)c2ccc(C(F)(F)F)nc2)s1 (single isomer, unassigned) [Example 29.1] ; IC50 = 12500 nM

IC50 recorded for this compound, Cc1ccccc1N(C)C(=O)COc1ccc(C(=O)c2sc(N(c3ccc(F)cc3)C(C)C(N)=O)nc2N)cc1 (racemic) , is 61.6 nM

CC(C(N)=O)N(c1ccc(F)cc1)c1nc(N)c(C(=O)c2ccc(OCC(=O)N3CCC(Cc4ccccc4)CC3)cc2)s1 (racemic) has a reported IC50 of 63.3 nM
